viability, T/C values for the molecules below.
# Test system: 521955-158-R2-J5-PDC complex spheroid viability;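 also: spheroids exposed to agents for seven days; percent of DMSO vehicle control luminescence viability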
# procedure text: Anticancer human tumor 521955-158-R2-J5-PDC patient-derived pancreatic carcinoma cell line growth inhibition
# conditions used: second compound 0.1 µM; first compound 0.000316 µM; active compounds read low
measured quantity: viability, T/C (%)

{"molecule": "CC(C)CC(NC(=O)C(Cc1ccccc1)NC(=O)c1cnccn1)B(O)O (stereo not drawn) + NC1CCC(NC2CC2c2ccccc2)CC1", "measured quantity": "viability, T/C", "observed measurement": 80.7}
{"molecule": "CC(C)CC(NC(=O)CNC(=O)c1cc(Cl)ccc1Cl)B1OC(=O)CC(CC(=O)O)(C(=O)O)O1 (stereo not drawn) + NC1CC1c1ccc(-c2cccc(O)c2)cc1", "measured quantity": "viability, T/C", "observed measurement": 83.1}
{"molecule": "CC[C@@]1(O)C(=O)OCc2c1cc1n(c2=O)Cc2cc3c(CN(C)C)c(O)ccc3nc2-1 + NC1CCC(NC2CC2c2ccccc2)CC1", "measured quantity": "viability, T/C", "observed measurement": 100}
{"molecule": "CC[C@@]1(O)C(=O)OCc2c1cc1n(c2=O)Cc2cc3c(CN(C)C)c(O)ccc3nc2-1 + NC1CC1c1ccc(-c2cccc(O)c2)cc1", "measured quantity": "viability, T/C", "observed measurement": 97.3}
{"molecule": "CC(C)CC(NC(=O)CNC(=O)c1cc(Cl)ccc1Cl)B1OC(=O)CC(CC(=O)O)(C(=O)O)O1 (stereo not drawn) + NC1CCC(NC2CC2c2ccccc2)CC1", "measured quantity": "viability, T/C", "observed measurement": 105}
{"molecule": "Cn1ncnc1C1c2n[nH]c(=O)c3cc(F)cc(c23)NC1c1ccc(F)cc1 (stereo not drawn) + NC1CCC(NC2CC2c2ccccc2)CC1", "measured quantity": "viability, T/C", "observed measurement": 109}
{"molecule": "CC(C)CC(NC(=O)C(Cc1ccccc1)NC(=O)c1cnccn1)B(O)O (stereo not drawn) + NC1CC1c1ccc(-c2cccc(O)c2)cc1", "measured quantity": "viability, T/C", "observed measurement": 92.2}
{"molecule": "Cn1ncnc1C1c2n[nH]c(=O)c3cc(F)cc(c23)NC1c1ccc(F)cc1 (stereo not drawn) + NC1CC1c1ccc(-c2cccc(O)c2)cc1", "measured quantity": "viability, T/C", "observed measurement": 91.4}
